Where these numbers come from: the supplement of paper PMC10567573

B1: ZNF263 (parent)
chain: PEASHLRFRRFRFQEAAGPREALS

Variants of: B1
protocol summary: protein stability index of a GFP-peptide fusion (GPS, HEK-293T) (PSI 1-6); higher = more stable;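 further: lentivirally expressed fusions sorted by FACS into six bins by GFP to DsRed ratio, PSI derived from sequencing read proportions per bin multiplied by bin number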
condition notes: c terminus: a fixed tail appended
measurement name: protein stability index
Number only, no unit.

Enquiry: Which protein stability index value is on record for PEASHLCFRRFRFQEAAGPREALS [R7C] ?
Return: 2.5

Enquiry: Next up: PEASHLRFRRFRFQEAAGVREALS [P19V]
Return: 2.21

Enquiry: Next up: PEASHVRFRRFRFQEAAGPREALS [L6V]
Return: 3.36

Enquiry: Next up: PEASHLRFRRFRFQEAAGPREALE [S24E]
Return: 2.79

Enquiry: Next up: PEASHLRFRRFRFQEAAGPREAQS [L23Q]
Return: 2.97

Enquiry: Next up: PEASHLRFRRFRFQDAAGPREALS [E15D]
Return: 2.09

Enquiry: Next up: PEAIHLRFRRFRFQEAAGPREALS [S4I]
Return: 1.7

Enquiry: Next up: PEASHLRFRRFDFQEAAGPREALS [R12D]
Return: 3.93

Enquiry: Next up: PEASHLRFRRFRFQEAAGPRDALS [E21D]
Return: 2.54

Enquiry: Next up: PEASHLRFRRFRFQEAVGPREALS [A17V]
Return: 2.55

Enquiry: Next up: PEAHHLRFRRFRFQEAAGPREALS [S4H]
Return: 2.04

Enquiry: Next up: PEASHLRFRRFRFQEPAGPREALS [A16P]
Return: 3.25

Enquiry: Next up: PEASHLMFRRFRFQEAAGPREALS [R7M]
Return: 2.84

Enquiry: Next up: PEASHLRFRRFRFQEAPGPREALS [A17P]
Return: 2.55

Enquiry: Next up: PEASHLRFGRFRFQEAAGPREALS [R9G]
Return: 3.36

Enquiry: Next up: AEASHLRFRRFRFQEAAGPREALS [P1A]
Return: 1.75

Enquiry: Next up: PEISHLRFRRFRFQEAAGPREALS [A3I]
Return: 2.52

Enquiry: Next up: PEASHLRFRRFRFQEAAGPRYALS [E21Y]
Return: 2.58

Enquiry: Next up: PEASHLRFRRFRRQEAAGPREALS [F13R]
Return: 3.56

Enquiry: Next up: YEASHLRFRRFRFQEAAGPREALS [P1Y]
Return: 2.3

Enquiry: Next up: PEASHLRFRRFRYQEAAGPREALS [F13Y]
Return: 2.3

Enquiry: Next up: PEWSHLRFRRFRFQEAAGPREALS [A3W]
Return: 1.97
